# Test system: NCI-H522
# method.notes: NCI-60 single-dose screen
# Type: cell-based
# assay.context: Homo sapiens, single dose 10 µM, '-' = no inhibition, read-out: % Growth Inhibition
readout.type: inhibition at 10 µM (%)
Lab book: enter the figure in %, no units written.

INSERT INTO measurements (smiles_repr, subject_of_test, measurement_unit, test_result) VALUES
  ('COc1ccc(-c2cc(-c3ccc(Cl)cc3)nc(SC(C)C)n2)cc1OC', 'NCI-H522', '%', 9.05);

*Q* Look at this molecule and give its reported inhibition at 10 µM. `COc1ccc(-c2cc(-c3cccc(OC)c3)nc(SC)n2)cc1`
*A* 14.1

*Q* Check `C=CCSc1nc(-c2ccc(Cl)cc2)cc(-c2ccc(OC)c(OC)c2)n1` too.
*A* 16.4

*Q* Then what about the molecule `COc1ccc(-c2cc(-c3cccc(OC)c3)nc(SC(C)C)n2)cc1` ?
*A* 21

*Q* Thanks! And `COc1ccc(-c2cc(-c3ccc(Cl)cc3)nc(SC)n2)cc1OC` ?
*A* 31.2

*Q* Follow-up item: `CCSc1nc(-c2ccc(OC)cc2)cc(-c2cccc(OC)c2)n1`
*A* 5.39

*Q* Then this molecule: `COc1ccc(-c2cc(-c3ccc(Cl)cc3)nc(SC)n2)cc1`
*A* 16

* * *

# Tested on: SF-268
# method.notes: NCI-60 single-dose screen
# Type: cell-based
# assay.context: Homo sapiens, single dose 10 µM, '-' = no inhibition, read-out: % Growth Inhibition
Measured inhibition at 10 µM accompanies every entry in the list below.
All answers are understood in %, so give the number only.

INSERT INTO results (smiles_repr, readout_type, test_result) VALUES
  ('CCCSc1nc(-c2ccc(Cl)cc2)cc(-c2ccc(OC)c(OC)c2)n1', 'inhibition at 10 µM', 6.85),
  ('COc1ccc(-c2cc(-c3cccc(OC)c3)nc(SC)n2)cc1', 'inhibition at 10 µM', 15.7),
  ('COc1ccc(-c2cc(-c3ccc(Cl)cc3)nc(SC)n2)cc1OC', 'inhibition at 10 µM', 11.5),
  ('CCSc1nc(-c2ccc(Cl)cc2)cc(-c2ccc(OC)c(OC)c2)n1', 'inhibition at 10 µM', 16.9);

*Q* Quick check: inhibition at 10 µM of `COc1ccc(CSc2nc(-c3ccc(Cl)cc3)cc(-c3ccc(OC)c(OC)c3)n2)cc1` ?
*A* 33

*Q* Try the compound `COc1ccc(-c2cc(-c3ccc(Cl)cc3)nc(SCc3ccccc3)n2)cc1OC`
*A* 10.8

* * *

# Test system: NCI/ADR-RES
# method.notes: NCI-60 single-dose screen
# Type: cell-based
# assay.context: Homo sapiens, single dose 10 µM, '-' = no inhibition, read-out: % Growth Inhibition
Mark fulfilled for reported inhibition at 10 µM of 10% or greater; mark not fulfilled for anything smaller.

INSERT INTO assay_data (smiles_repr, class_name) VALUES
  ('CCSc1nc(-c2ccc(OC)cc2)cc(-c2cccc(OC)c2)n1', 'not fulfilled'),
  ('COc1ccc(CSc2nc(-c3ccc(Cl)cc3)cc(-c3ccc(OC)c(OC)c3)n2)cc1', 'fulfilled'),
  ('C=CCSc1nc(-c2ccc(Cl)cc2)cc(-c2ccc(OC)cc2)n1', 'not fulfilled'),
  ('CCCSc1nc(-c2ccc(Cl)cc2)cc(-c2ccc(OC)cc2)n1', 'not fulfilled'),
  ('COc1ccc(-c2cc(-c3ccc(Cl)cc3)nc(SC(C)C)n2)cc1', 'fulfilled'),
  ('COc1ccc(-c2cc(-c3ccc(Cl)cc3)nc(SC(C)C)n2)cc1OC', 'not fulfilled'),
  ('COc1ccc(-c2cc(-c3ccc(Cl)cc3)nc(SC)n2)cc1OC', 'fulfilled'),
  ('COc1ccc(CSc2nc(-c3ccc(Cl)cc3)cc(-c3ccc(OC)cc3)n2)cc1', 'not fulfilled'),
  ('COc1ccc(-c2cc(-c3cccc(OC)c3)nc(SC)n2)cc1', 'fulfilled'),
  ('C=CCSc1nc(-c2ccc(OC)cc2)cc(-c2cccc(OC)c2)n1', 'not fulfilled');

# ---- query compound ----
*Q* # check: inhibition at 10 µM of `COc1ccc(-c2cc(-c3ccc(Cl)cc3)nc(SCc3ccccc3)n2)cc1` is greater than or equal to 10%
*A* not fulfilled
